Assay: Pharmacokinetics (TK) after 30-min IV infusion in monkeys
Format: in vivo, Cynomolgus monkeys
Conditions: both sexes, cynomolgus monkey, plasma; Mean; 2 mg/kg 30-min IV infusion
endpoint-name: clearance (mL/min/kg)
Answers are plain numbers, in mL/min/kg.

# compound, clearance / mL/min/kg
rows = [
    ("C[C@H](OP(=O)(N1CC1)N1CC1)c1ccc([N+](=O)[O-])c(Oc2cccc(C(=O)N(C)C)c2)c1 (single isomer, unassigned) [TH3424]", 23.7),
]

Using known records, supply clearance for C[C@@H](OP(=O)(N1CC1)N1CC1)c1ccc([N+](=O)[O-])c(Oc2cccc(C(=O)N(C)C)c2)c1 (single isomer, unassigned) [TH3423]
43.3

----------
Assay: Pharmacokinetics (TK) after 30-min IV infusion in monkeys
Format: in vivo, Cynomolgus monkeys
Conditions: cynomolgus monkey, plasma; male; 2 mg/kg 30-min IV infusion; read-out: Terminal t1/2 (converted)
endpoint-name: half-life (min)
Answers are plain numbers, in min.

# compound, half-life [min]
measured = [
    ("C[C@H](OP(=O)(N1CC1)N1CC1)c1ccc([N+](=O)[O-])c(Oc2cccc(C(=O)N(C)C)c2)c1 (single isomer, unassigned)", 10.9),
]

For the next question, use this compound.
Using known records, supply half-life for C[C@@H](OP(=O)(N1CC1)N1CC1)c1ccc([N+](=O)[O-])c(Oc2cccc(C(=O)N(C)C)c2)c1 (single isomer, unassigned)
9

----------
Please go through the items and note down their half-life.
Assay: Pharmacokinetics (TK) after 30-min IV infusion in monkeys
Type: in vivo, Cynomolgus monkeys
Conditions: both sexes, cynomolgus monkey, plasma; Mean; 2 mg/kg 30-min IV infusion; read-out: Terminal t1/2 (converted)
Answers are plain numbers, in min.

# compound, half-life / min
rows = [
    ("C[C@@H](OP(=O)(N1CC1)N1CC1)c1ccc([N+](=O)[O-])c(Oc2cccc(C(=O)N(C)C)c2)c1 (single isomer, unassigned)", 7.74),
]

Using known records, supply half-life for C[C@H](OP(=O)(N1CC1)N1CC1)c1ccc([N+](=O)[O-])c(Oc2cccc(C(=O)N(C)C)c2)c1 (single isomer, unassigned)
10.9

----------
Test system: HCCC9810
Assay: In vitro human tumor cell line cytotoxicity assay
Type: cell-based
Conditions: Homo sapiens, read-out: RelIC50
endpoint-name: IC50
Don't forget the unit after the value.

For each entry beneath this line, provide reported IC50.
1. CC(OP(=O)(N1CC1)N1CC1)c1ccc([N+](=O)[O-])c(Oc2cccc(C(=O)N(C)C)c2)c1 (racemic)
2. C[C@@H](OP(=O)(N1CC1)N1CC1)c1ccc([N+](=O)[O-])c(Oc2cccc(C(=O)N(C)C)c2)c1 (single isomer, unassigned)
3. C[C@H](OP(=O)(N1CC1)N1CC1)c1ccc([N+](=O)[O-])c(Oc2cccc(C(=O)N(C)C)c2)c1 (single isomer, unassigned)

0.0292 µM
0.0168 µM
0.0134 µM

----------
Please go through the items and note down their clearance.
Experiment: Pharmacokinetics (TK) after 30-min IV infusion in monkeys
Assay type: in vivo, Cynomolgus monkeys
Conditions: cynomolgus monkey, plasma; male; 2 mg/kg 30-min IV infusion

# compound, clearance
measured = [
    ("C[C@H](OP(=O)(N1CC1)N1CC1)c1ccc([N+](=O)[O-])c(Oc2cccc(C(=O)N(C)C)c2)c1 (single isomer, unassigned)", "19.3 mL/min/kg"),
]

For the next question, use this compound.
Using known records, supply clearance for C[C@@H](OP(=O)(N1CC1)N1CC1)c1ccc([N+](=O)[O-])c(Oc2cccc(C(=O)N(C)C)c2)c1 (single isomer, unassigned)
43.2 mL/min/kg

The reported measurements were obtained from patent EP3390415B1.
